- Test system: Saccharomyces cerevisiae
- Assay Remarks: protein stability index of tFT-peptide fusion (C-terminal peptide) (PSI (0-1 scale)); higher = more stable (slower turnover)
- Condition: genetic background: das1 deletion; temperature: 30 C
# protein stability index listing for each entry below

Some sequences with known protein stability index results, for comparison:
INSERT INTO results (primary_sequence, result) VALUES
  ('QPLLPCFFRRAV [YER147C-A C-terminal 12 aa]', 0.691),
  ('LLLLILNECYPA [BUD30 C-terminal 12 aa]', 0.518),
  ('KGLFWDPACVIA [MFA2 C-terminal 12 aa]', 0.731),
  ('RYAKIHEKHVSA [ASN2 C-terminal 12 aa]', 0.716),
  ('DPLYYVYCLHMP [NAT4 C-terminal 12 aa]', 0.658);

Q: Field: protein stability index (Saccharomyces cerevisiae). Entry: RFQDGTSVVSIM [SMC2 C-terminal 12 aa]
A: 0.695

====

# protein stability index listing for each entry below
- System: Saccharomyces cerevisiae
- Assay Remarks: protein stability index of tFT-peptide fusion (C-terminal peptide) (PSI (0-1 scale)); higher = more stable (slower turnover)
- Condition: genetic background: das1 deletion; temperature: 30 C
Lab note: jot down the number only; don't add units.

INSERT INTO assay_data (primary_sequence, measured_on, numeric_result) VALUES
  ('WGEAGRPAGRGA', 'Saccharomyces cerevisiae', 0.631),
  ('YHFSLFFPLSLP', 'Saccharomyces cerevisiae', 0.607),
  ('LLYYMPELLILT', 'Saccharomyces cerevisiae', 0.208),
  ('VWFVFVCAVCVL', 'Saccharomyces cerevisiae', 0.205),
  ('FCSNLLSMVIAV', 'Saccharomyces cerevisiae', 0.32);

Q: Record request: protein stability index value, item ARFFFFCVGILI
A: 0.339

Q: Same read-out for RFFFSSFPLLIS ?
A: 0.349

Q: Same read-out for FWFSFSFLCHSY ?
A: 0.358

Q: Same read-out for LWVMVLFFPGCS ?
A: 0.307

Q: Same read-out for FGWLELVWFDLG ?
A: 0.525

Q: Same read-out for GLWLCRGLVRAW ?
A: 0.299

Q: Same read-out for PIKIYGYLTTVV ?
A: 0.517

Q: Same read-out for VLCFFWWWCRVC ?
A: 0.472

Q: Same read-out for LLVVGPVRLVVH ?
A: 0.201

Q: Same read-out for FKVTWGLFYGSV ?
A: 0.505

====

- Tested on: Saccharomyces cerevisiae
- Assay Remarks: protein stability index of tFT-peptide fusion (C-terminal peptide) (PSI (0-1 scale)); higher = more stable (slower turnover)
- Condition: genetic background: das1 deletion; temperature: 30 C
# protein stability index listing for each entry below
Lab note: jot down the number only; don't add units.

Some sequences with known protein stability index results, for comparison:
INSERT INTO measurements (primary_sequence, numeric_result) VALUES
  ('NVGNNEETLDDH [RAD34 C-terminal 12 aa]', 0.726),
  ('QLLNLLVKISQL [RFC2 C-terminal 12 aa]', 0.677);

Q: Field: protein stability index (Saccharomyces cerevisiae). Entry: SEPVKQVLDSKE [NMA2 C-terminal 12 aa]
A: 0.749

Q: Same read-out for LPEAPSSQPLQA [TIM17 C-terminal 12 aa] ?
A: 0.674

Q: Same read-out for MRLLGLTPVERM [YDR341C C-terminal 12 aa] ?
A: 0.672

Q: Same read-out for HDRSESDSDLDI [PLP1 C-terminal 12 aa] ?
A: 0.671

====

- System: Saccharomyces cerevisiae
- Assay Remarks: protein stability index of tFT-peptide fusion (C-terminal peptide) (PSI (0-1 scale)); higher = more stable (slower turnover)
- Condition: genetic background: wild type; temperature: 30 C
Output Satisfied for protein stability index not less than 0.7; output Not satisfied otherwise.

INSERT INTO measurements (primary_sequence, measured_on, discrete_label) VALUES
  ('FLFKLPPPPRCH', 'Saccharomyces cerevisiae', 'Not satisfied'),
  ('LFPSPPPPRSSL', 'Saccharomyces cerevisiae', 'Satisfied'),
  ('SFPPLCLSFPVF', 'Saccharomyces cerevisiae', 'Not satisfied'),
  ('LWVSHFVILIVS', 'Saccharomyces cerevisiae', 'Not satisfied'),
  ('FPLGRCPHIPPH', 'Saccharomyces cerevisiae', 'Not satisfied');

Q: State whether the measured protein stability index reaches 0.7, counting equality as reaching it, for LVSPLARLGLMI
A: Satisfied

Q: Same read-out for QCIQQNVSSSRA ?
A: Not satisfied

Q: Same read-out for LPHLFLSVPSSP ?
A: Not satisfied

Q: Same read-out for EYTIKTENKYKI ?
A: Satisfied

Q: Same read-out for CGLGKVLGWRWV ?
A: Not satisfied

Q: Same read-out for AGHLLDVRLLVL ?
A: Not satisfied

Q: Same read-out for EGGLGDRLLGVG ?
A: Not satisfied

====

- Test system: Saccharomyces cerevisiae
- Assay Remarks: protein stability index of tFT-peptide fusion (C-terminal peptide) (PSI (0-1 scale)); higher = more stable (slower turnover)
- Condition: genetic background: wild type; temperature: 30 C
Parameter Measured: protein stability index
Lab note: jot down the number only; don't add units.

INSERT INTO results (primary_sequence, numeric_result) VALUES
  ('GRGCLGSILVFL', 0.633);

Q: Field: protein stability index (Saccharomyces cerevisiae). Entry: PHLSRSVSKVLR
A: 0.659

Q: Same read-out for GLSSFIGRRGRR ?
A: 0.713

Q: Same read-out for LNNAIAGGSVGI ?
A: 0.702

Q: Same read-out for KERNKISQRKLT ?
A: 0.434

Q: Same read-out for TRGSLIFACSVF ?
A: 0.576

Q: Same read-out for PPPDSSLPLGSP ?
A: 0.688

Q: Same read-out for GGGDRRRTARLS ?
A: 0.578

Q: Same read-out for SVIGLNLVGMGW ?
A: 0.641

Q: Same read-out for SGPSSIGSSCMS ?
A: 0.663

====

- Test system: Saccharomyces cerevisiae
- Assay Remarks: protein stability index of tFT-peptide fusion (C-terminal peptide) (PSI (0-1 scale)); higher = more stable (slower turnover)
- Condition: genetic background: wild type; temperature: 30 C
Parameter Measured: protein stability index
Lab note: jot down the number only; don't add units.

Some sequences with known protein stability index results, for comparison:
INSERT INTO results (primary_sequence, measured_on, numeric_result) VALUES
  ('LIKATAYRTNRQ', 'Saccharomyces cerevisiae', 0.745),
  ('WSISKSTWGPIG', 'Saccharomyces cerevisiae', 0.673),
  ('RYRGPIPHEHTC', 'Saccharomyces cerevisiae', 0.652),
  ('GCFARSEKLSGL', 'Saccharomyces cerevisiae', 0.687),
  ('IKKKKKKIKRNN', 'Saccharomyces cerevisiae', 0.654);

Q: Record request: protein stability index value, item PARRPPPTPSSS
A: 0.631

Q: Same read-out for ATHISCRRNRLY ?
A: 0.57

Q: Same read-out for GISGRPDGGRGG ?
A: 0.658

Q: Same read-out for KKKIKKQKKKQI ?
A: 0.709

Q: Same read-out for EGWRWEGGVWEG ?
A: 0.676

====

- Test system: Saccharomyces cerevisiae
- Assay Remarks: protein stability index of tFT-peptide fusion (C-terminal peptide) (PSI (0-1 scale)); higher = more stable (slower turnover)
- Condition: genetic background: cdc34-1; temperature: 37 C
Parameter Measured: protein stability index
Lab note: jot down the number only; don't add units.

Some sequences with known protein stability index results, for comparison:
INSERT INTO results (primary_sequence, numeric_result) VALUES
  ('PSPVPPPSSPSP', 0.682),
  ('ILLYCVLIDPYS', 0.203),
  ('LLPLLFFFLCLP', 0.592),
  ('VWPLAFFLRFFI', 0.547),
  ('LWGLVGVCLVLC', 0.0679),
  ('SGLPLVILFLCL', 0.529),
  ('VAALFPPLRFLN', 0.554),
  ('FCVGVVIQLSGV', 0.435);

Q: Record request: protein stability index value, item WGLPVGVESSGG
A: 0.712

Q: Same read-out for DNLYSLEFMAIR ?
A: 0.719

Q: Same read-out for AGGLLIGSVGVG ?
A: 0.434

Q: Same read-out for LLYPSKFCITAI ?
A: 0.506

Q: Same read-out for WLMVGVDWRFVG ?
A: 0.436

Q: Same read-out for KMIVWKESIKRE ?
A: 0.689

Q: Same read-out for ARFFFFCVGILI ?
A: 0.379

Q: Same read-out for WGEAGRPAGRGA ?
A: 0.703

Q: Same read-out for KIIKERIRRIKI ?
A: 0.653

Q: Same read-out for IGWKLNRIQKNI ?
A: 0.686

Q: Same read-out for LFLLSVNLLLGY ?
A: 0.0581

Q: Same read-out for PRQGGDFVARVG ?
A: 0.691
